From: patent US10479752B2

Assay: Chemical and isotopic stability as solutions in DMSO/phosphate buffered saline over 48 hours
Conditions: DMSO/PBS solution, 37° C., 0 h
Items are presented alongside their recorded HPLC Assay.

{"columns": ["Compound", "HPLC Assay [%]"],
 "data": [
  ["[2H]C([2H])(C(=O)O)C(C)(C)CCCCCCCCCCCCC(C)(C)C([2H])([2H])C(=O)O [Compound 5]", 57.0],
  ["[2H]C([2H])(C(=O)O)C(C)(C)CCCCCCCCCCC(C)(C)C([2H])([2H])C(=O)O [Compound 2]", 67.4],
  ["[2H]C([2H])([2H])C(CCCCCCCCCCC(C([2H])([2H])[2H])(C([2H])([2H])[2H])C([2H])([2H])C(=O)O)(C([2H])([2H])[2H])C([2H])([2H])C(=O)O [Compound 1]", 66.5],
  ["[2H]C([2H])([2H])C(CCCCCCCCCCCCCCC(C(=O)O)(C([2H])([2H])[2H])C([2H])([2H])[2H])(C(=O)O)C([2H])([2H])[2H] [Compound 8]", 60.0],
  ["[2H]C([2H])([2H])C(CCCCCCCCCCC(CC(=O)O)(C([2H])([2H])[2H])C([2H])([2H])[2H])(CC(=O)O)C([2H])([2H])[2H] [Compound 3]", 33.3],
  ["[2H]C([2H])([2H])C(CCCCCCCCCCCCC(CC(=O)O)(C([2H])([2H])[2H])C([2H])([2H])[2H])(CC(=O)O)C([2H])([2H])[2H] [Compound 6]", 39.0],
  ["[2H]C([2H])([2H])C(CCCCCCCCCCCCC(C(=O)O)(C([2H])([2H])[2H])C([2H])([2H])[2H])(C(=O)O)C([2H])([2H])[2H] [Compound 7]", 89.4],
  ["[2H]C([2H])([2H])C(CCCCCCCCCCCCC(C([2H])([2H])[2H])(C([2H])([2H])[2H])C([2H])([2H])C(=O)O)(C([2H])([2H])[2H])C([2H])([2H])C(=O)O [Compound 4]", 70.9]
]}

* * *

Assay: Chemical and isotopic stability as solutions in DMSO/phosphate buffered saline over 48 hours
Details: DMSO/PBS solution, 37° C., summary over the study

{"columns": ["Molecular String", "analyte recovered, yield"],
 "data": [
  ["[2H]C([2H])([2H])C(CCCCCCCCCCCCC(C(=O)O)(C([2H])([2H])[2H])C([2H])([2H])[2H])(C(=O)O)C([2H])([2H])[2H]", "approximately 90%"],
  ["[2H]C([2H])([2H])C(CCCCCCCCCCCCC(CC(=O)O)(C([2H])([2H])[2H])C([2H])([2H])[2H])(CC(=O)O)C([2H])([2H])[2H]", "about 95%"],
  ["[2H]C([2H])([2H])C(CCCCCCCCCCC(CC(=O)O)(C([2H])([2H])[2H])C([2H])([2H])[2H])(CC(=O)O)C([2H])([2H])[2H]", "about 95%"],
  ["[2H]C([2H])(C(=O)O)C(C)(C)CCCCCCCCCCCCC(C)(C)C([2H])([2H])C(=O)O", "about 95%"],
  ["[2H]C([2H])(C(=O)O)C(C)(C)CCCCCCCCCCC(C)(C)C([2H])([2H])C(=O)O", "approximately 90%"]
]}

* * *

Assay: Comparative oral bioavailability / pharmacokinetic study, single intravenous and oral administration
Format: in vivo
Details: rat, 50 mg/kg po dose, Mean CV (%)
Items are presented alongside their recorded t1/2.

{"columns": ["Compound", "t1/2"],
 "data": [
  ["[2H]C([2H])([2H])C(CCCCCCCCCCCCC(C(=O)O)(C([2H])([2H])[2H])C([2H])([2H])[2H])(C(=O)O)C([2H])([2H])[2H] [Compound 7]", "6.64 (50.3%) h"],
  ["CC(C)(CCCCCCCCCCCCC(C)(C)C(=O)O)C(=O)O [Compound 7″, reference compound]", "2.22 (9.9%) h"],
  ["[2H]C([2H])([2H])C(CCCCCCCCCCC(C([2H])([2H])[2H])(C([2H])([2H])[2H])C([2H])([2H])C(=O)O)(C([2H])([2H])[2H])C([2H])([2H])C(=O)O [Compound 1]", "4.29 (15.7%) h"],
  ["CC(C)(CCCCCCCCCCC(C)(C)CC(=O)O)CC(=O)O [Compound 1″, reference compound]", "2.43 (57.6%) h"]
]}

* * *

Experiment: Chemical and isotopic stability as solutions in DMSO/phosphate buffered saline over 48 hours
Conditions: Original Sample (before the stability study)
Quantity Measured: HPLC Area Percentage (%)

{"columns": ["Molecular String", "Test Result"],
 "data": [
  ["[2H]C([2H])([2H])C(CCCCCCCCCCC(C([2H])([2H])[2H])(C([2H])([2H])[2H])C([2H])([2H])C(=O)O)(C([2H])([2H])[2H])C([2H])([2H])C(=O)O", 100.0],
  ["[2H]C([2H])([2H])C(CCCCCCCCCCCCC(C(=O)O)(C([2H])([2H])[2H])C([2H])([2H])[2H])(C(=O)O)C([2H])([2H])[2H]", 99.5],
  ["[2H]C([2H])([2H])C(CCCCCCCCCCCCC(CC(=O)O)(C([2H])([2H])[2H])C([2H])([2H])[2H])(CC(=O)O)C([2H])([2H])[2H]", 100.0],
  ["[2H]C([2H])([2H])C(CCCCCCCCCCCCC(C([2H])([2H])[2H])(C([2H])([2H])[2H])C([2H])([2H])C(=O)O)(C([2H])([2H])[2H])C([2H])([2H])C(=O)O", 99.2],
  ["[2H]C([2H])(C(=O)O)C(C)(C)CCCCCCCCCCC(C)(C)C([2H])([2H])C(=O)O", 97.0]
]}

* * *

Assay: Chemical and isotopic stability as solutions in DMSO/phosphate buffered saline over 48 hours
Conditions: DMSO/PBS solution, 37° C., 0 h
Items are presented alongside their recorded GC/MS IE (isotopic enrichment).

{"columns": ["Molecular String", "Unit Annotation", "GC/MS IE (isotopic enrichment)"],
 "data": [
  ["[2H]C([2H])([2H])C(CCCCCCCCCCCCCCC(C(=O)O)(C([2H])([2H])[2H])C([2H])([2H])[2H])(C(=O)O)C([2H])([2H])[2H]", "%", 99.9],
  ["[2H]C([2H])([2H])C(CCCCCCCCCCC(CC(=O)O)(C([2H])([2H])[2H])C([2H])([2H])[2H])(CC(=O)O)C([2H])([2H])[2H]", "%", 99.9],
  ["[2H]C([2H])([2H])C(CCCCCCCCCCCCC(C([2H])([2H])[2H])(C([2H])([2H])[2H])C([2H])([2H])C(=O)O)(C([2H])([2H])[2H])C([2H])([2H])C(=O)O", "%", 98.6],
  ["[2H]C([2H])([2H])C(CCCCCCCCCCCCC(CC(=O)O)(C([2H])([2H])[2H])C([2H])([2H])[2H])(CC(=O)O)C([2H])([2H])[2H]", "%", 99.2],
  ["[2H]C([2H])([2H])C(CCCCCCCCCCCCC(C(=O)O)(C([2H])([2H])[2H])C([2H])([2H])[2H])(C(=O)O)C([2H])([2H])[2H]", "%", 99.9]
]}

* * *

Assay: Chemical and isotopic stability as solutions in DMSO/phosphate buffered saline over 48 hours
Conditions: DMSO/PBS solution, 37° C., 4 h
Quantity Measured: HPLC Assay

{"columns": ["Molecular String", "Test Result"],
 "data": [
  ["[2H]C([2H])(C(=O)O)C(C)(C)CCCCCCCCCCCCC(C)(C)C([2H])([2H])C(=O)O", "46.3%"],
  ["[2H]C([2H])([2H])C(CCCCCCCCCCCCC(C(=O)O)(C([2H])([2H])[2H])C([2H])([2H])[2H])(C(=O)O)C([2H])([2H])[2H]", "91.6%"],
  ["[2H]C([2H])(C(=O)O)C(C)(C)CCCCCCCCCCC(C)(C)C([2H])([2H])C(=O)O", "62.4%"],
  ["[2H]C([2H])([2H])C(CCCCCCCCCCCCC(CC(=O)O)(C([2H])([2H])[2H])C([2H])([2H])[2H])(CC(=O)O)C([2H])([2H])[2H]", "35.6%"],
  ["[2H]C([2H])([2H])C(CCCCCCCCCCC(C([2H])([2H])[2H])(C([2H])([2H])[2H])C([2H])([2H])C(=O)O)(C([2H])([2H])[2H])C([2H])([2H])C(=O)O", "70.1%"],
  ["[2H]C([2H])([2H])C(CCCCCCCCCCCCC(C([2H])([2H])[2H])(C([2H])([2H])[2H])C([2H])([2H])C(=O)O)(C([2H])([2H])[2H])C([2H])([2H])C(=O)O", "53.8%"],
  ["[2H]C([2H])([2H])C(CCCCCCCCCCCCCCC(C(=O)O)(C([2H])([2H])[2H])C([2H])([2H])[2H])(C(=O)O)C([2H])([2H])[2H]", "56.9%"],
  ["[2H]C([2H])([2H])C(CCCCCCCCCCC(CC(=O)O)(C([2H])([2H])[2H])C([2H])([2H])[2H])(CC(=O)O)C([2H])([2H])[2H]", "32.4%"]
]}
